The reported numbers originate from patent US20110118447A1.

Target: binding partner of C5A (XPA23)
Experiment: Biacore
fold affinity vs original listing for selected binders.
Please respond with the number in fold and leave the unit unwritten.

Guide cases for fold affinity vs original, answers given:
{"BINDER": "C5A (XPA23) VH D106H (antibody, V domains shown) VH: EVQLLESGGGLVQPGGSLRLSCAASGFTFSKYFMFWVRQAPGKGLEWVSVISPSGGMTRYADSVKGRFTISRDNSKNTLYLQMNSLRAEDTAVYYCARVGYGGNSHYWGQGTLVTVSS VL: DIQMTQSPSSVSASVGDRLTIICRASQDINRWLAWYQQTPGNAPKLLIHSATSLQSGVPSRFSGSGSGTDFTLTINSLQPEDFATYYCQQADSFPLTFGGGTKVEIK", "UNIT_SYMBOL": "fold", "fold affinity vs original": 0.02}
{"BINDER": "C5A (XPA23) VH Y32N (antibody, V domains shown) VH: EVQLLESGGGLVQPGGSLRLSCAASGFTFSKNFMFWVRQAPGKGLEWVSVISPSGGMTRYADSVKGRFTISRDNSKNTLYLQMNSLRAEDTAVYYCARVGYGGNSDYWGQGTLVTVSS VL: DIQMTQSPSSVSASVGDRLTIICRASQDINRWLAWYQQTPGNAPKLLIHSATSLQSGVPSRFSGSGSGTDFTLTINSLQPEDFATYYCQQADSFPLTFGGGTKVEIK", "UNIT_SYMBOL": "fold", "fold affinity vs original": 0.04}

Next item in the queue.
Record C5A (XPA23) VH P53W (antibody, V domains shown) VH: EVQLLESGGGLVQPGGSLRLSCAASGFTFSKYFMFWVRQAPGKGLEWVSVISWSGGMTRYADSVKGRFTISRDNSKNTLYLQMNSLRAEDTAVYYCARVGYGGNSDYWGQGTLVTVSS VL: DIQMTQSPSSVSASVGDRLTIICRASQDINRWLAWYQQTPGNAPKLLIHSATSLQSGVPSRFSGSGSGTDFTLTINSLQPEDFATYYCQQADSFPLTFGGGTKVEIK . Reported fold affinity vs original: 0.05
